System: HT29 colon
Assay: NCI-60 one-dose screen, 48 h
Conditions: 10 µM unless noted
Compounds without any hit were thinned out: in the full panel of roughly 83,000, 20% have a hit. The source made the active and inactive calls. How the source made its calls: active means growth percent below 10; inactive means the rest.
Reply using exactly one outcome from active, inactive

Exam item: Test call, this compound: CNCc1cccc2c1OCCOCCOCCN(CCN1CCOCC1)S(=O)(=O)c1ccc(cc1)-c1cnc(N)c(n1)C(=O)N2
Marked response: inactive

Exam item: Test call, this compound: O=c1c2ccccc2oc2ccc(OCCCCCN3CCCCCC3)cc12
Marked response: inactive

Exam item: Test call, this compound: O=C1CS/C(=N/c2nnc(-c3ccc(O)cc3)s2)N1
Marked response: inactive

Exam item: Test call, this compound: COC(=O)/C=C1\SC(=Nc2cccc(Cl)c2)N(CCc2c[nH]c3ccccc23)C1=O
Marked response: active

Exam item: Test call, this compound: COc1ccc(C2C(c3ccccc3)C(=O)N2c2cc(OC)c(OC)c(OC)c2)cc1I (stereo unspecified)
Marked response: active

Exam item: Test call, this compound: O=C(NCc1ccccc1)c1ccc2c(c1)NC(=O)[C@@H]1CCCN21
Marked response: inactive

Exam item: Test call, this compound: [2H]c1cc2c(c([2H])c1F)/C(=C/c1[nH]c(C)c(C(=O)NCCN(CC)CC)c1C)C(=O)N2
Marked response: inactive

Exam item: Test call, this compound: O=C(O)C(C(=O)O)c1cccc2ccccc12
Marked response: inactive

Exam item: Test call, this compound: C=C1C(=O)O[C@H]2[C@H]1CCC(/C=N/c1ncc(Br)cc1N)=C\CC[C@@]1(C)O[C@@H]21
Marked response: active

Exam item: Test call, this compound: C=C(C)[C@@H]1CC[C@]2(C(=O)O)CC[C@]3(C)[C@H](CC[C@@H]4[C@@]5(C)C[C@@H](CC#Cc6ccccc6C)C(=O)C(C)(C)[C@@H]5CC[C@]43C)[C@@H]12
Marked response: inactive

Exam item: Test call, this compound: COC(=O)c1nc(-c2ccccc2)oc1S(=O)(=O)n1nc(-c2ccccc2)cc1N
Marked response: inactive

Exam item: Test call, this compound: CC(/C=C/c1ccccc1)=N/NC(=O)c1ccncc1
Marked response: inactive
